Values from ChEMBL document CHEMBL1629614

- Protocol Notes: Inhibition of Staphylococcus aureus MetRS
Value Kind: pKi
Numbers only, as −log10 of the molar value.

[Q] Bench note: what pKi did C=C(F)c1sc(CNCCCNc2cc(=O)c3ccccc3[nH]2)c(C)c1Br [BEDEROCIN] show?
[A] 11.00

====

- Assayed Target: Methionine--tRNA ligase (Staphylococcus aureus subsp. aureus MW2, UniProt Q8NY00, G54S)
- Protocol Notes: Inhibition of Staphylococcus aureus MetRS G54S mutant
Value Kind: pKi
Give bare numbers, as −log10 of the molar value.

[Q] Recall the recorded pKi for C=C(F)c1sc(CNCCCNc2cc(=O)c3ccccc3[nH]2)c(C)c1Br with Methionine--tRNA ligase (Staphylococcus aureus subsp. aureus MW2, UniProt Q8NY00, G54S) and state it.
[A] 7.07
